Value source: PubChem BioAssay

I'd be grateful if you could share measured z-score for these entries.
measurement.notes: basal RPMI8226 viability, no added stimulus, profiling panel, cell-based, calcein-AM fluorescence, 48 h, PK04 Diversity Set (AID 1166);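 further: cells grown under basal conditions without added stimulus; test concentration not given here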
condition: RPMI8226 myeloma viability, higher = more signal

Request: Could you tell me which z-score is on file for CCOC(=O)[C@H](CC(C)C)NC(=O)CCC1CC(OC(=O)NCCc2ccc(F)cc2)CC2(CCCC(COC(=O)NCCOC)O2)O1 (stereo partly drawn) ?
Response: 0.124

Request: Could you tell me which z-score is on file for `O=C1[C@H]2[C@H]3[C@H](O)[C@H](O)CC(=NO[C@@H]4O[C@H](CO)[C@@H](O)[C@H](O)[C@H]4O)[C@H]3CC[C@H]2C(=O)N1C[C@@H]1CCCO1` ?
Response: 0.269

Request: Could you tell me which z-score is on file for CCOC(=O)[C@H](Cc1ccccc1)NC(=O)CCC1CC(OC(=O)NCc2cccc3ccccc23)CC2(CCCC(COC(=O)NCCc3ccc(Cl)cc3)O2)O1 (stereo partly drawn) ?
Response: 0.859

====

Tested on: Plasmodium falciparum Sir2 (PF13_0152, Sir2A)
measurement.notes: pfSir2 binders on small-molecule microarrays, primary screen, biochemical, small-molecule microarray, 635 nm fluorescence (AID 1098);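 further: score merges spot fluorescence intensity with its signal-to-noise ratio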
condition: small-molecule microarray binding, fluorescence 635 nm; higher = more signal
value.type: composite z-score
Could you keep your reply to the number by itself?

Request: Could you tell me which composite z-score is on file for C[C@@H]1CC[C@H]2C(=O)OC(Cc3ccccc3)CN2[C@H]1c1ccc(Br)cc1 (some centres not stated) ?
Response: 0.413

Request: Could you tell me which composite z-score is on file for `COc1ccc(COC(=O)NN=C2C[C@@H](O)[C@@H](O)[C@@H]3[C@@H]4C(=O)N([C@@H](C)c5ccccc5)C(=O)[C@@H]4CC[C@H]23)cc1` ?
Response: -0.25

Request: Could you tell me which composite z-score is on file for O=C1CCCC=C1C(O)c1ccc([N+](=O)[O-])cc1 (configuration not stated) ?
Response: -0.805

Request: Could you tell me which composite z-score is on file for `C=CC[C@@H]1C=C[C@H](Oc2ccc(C)cc2)[C@@H](COC(=O)NCc2cccc3ccccc23)O1` ?
Response: 0.45

Request: Could you tell me which composite z-score is on file for `O=C1C[C@@H](O)[C@@H](O)[C@@H]2[C@@H]3C(=O)N(Cc4ccccc4)C(=O)[C@@H]3CC[C@H]12` ?
Response: 0.465

Request: Could you tell me which composite z-score is on file for `CC[C@@H](c1ccccc1)n1c(=O)n2n(c1=O)[C@H]1[C@H](O)[C@@H]3O[C@@H]3C(=NOCc3ccccc3)[C@H]1CC2` ?
Response: 0.217

Request: Could you tell me which composite z-score is on file for CC(C)=NOC(C)CN1CCCCc2nc(C)c(C)cc21 (configuration not stated) ?
Response: 0.284

Request: Could you tell me which composite z-score is on file for `CCCNC(=O)OC[C@H]1O[C@H](CCON=C[C@@H](C)[C@H](OCc2ccccc2)C(C)C)C=C[C@@H]1Oc1ccc(OC)cc1` ?
Response: -0.369

Request: Could you tell me which composite z-score is on file for CCN(CC)CC(O)CN1CCCCc2nc(C)c(C)cc21 (configuration not stated) ?
Response: -0.145

Request: Could you tell me which composite z-score is on file for `CO[C@H]1COC(=O)CC=C[C@@H](C)COC(=O)[C@H]2CCCN2C(=O)CC=C[C@H]1C` ?
Response: 1.3

Request: Could you tell me which composite z-score is on file for `CO[C@H]1COC(=O)[C@H](C)COC(=O)[C@H](C)NC(=O)CC=C[C@H]1C` ?
Response: 0.378

Request: Could you tell me which composite z-score is on file for COC(=O)[C@H](C)NC(=O)CCC1CC(OC(=O)NCc2ccc3c(c2)OCO3)CC2(CCCC(COC(=O)NCc3ccccc3)O2)O1 (some centres not stated) ?
Response: 0.343

Request: Could you tell me which composite z-score is on file for `COC(=O)[C@@H]1CC[C@H](C)[C@@H](c2ccc(Br)cc2)N1C(=O)C(F)(F)F` ?
Response: -0.324

Request: Could you tell me which composite z-score is on file for `CC(CCC(=O)OC[C@H]1O[C@H](C#Cc2ccccc2)C=C[C@@H]1Oc1ccc(C)cc1)=NO[C@H](C)c1cn([C@@H]2COC[C@H]2O)nn1` ?
Response: 0.261

Request: Could you tell me which composite z-score is on file for `CC#CCOCCC=C1c2ccccc2[C@@H](OC)[C@@H]1C` ?
Response: 0.183

Request: Could you tell me which composite z-score is on file for `CO[C@@H]1COC(=O)[C@H](COCc2ccccc2)NC(=O)CC=C[C@@H](C)[C@H](OC)COC(=O)[C@@H](C)NC(=O)CC=C[C@H]1C` ?
Response: 1.57

Request: Could you tell me which composite z-score is on file for CCOC(=O)[C@H](Cc1ccccc1)NC(=O)CCC1CC(OC(=O)NCc2cccc3ccccc23)CC2(CCCC(COC(=O)NCCOc3ccccc3)O2)O1 (some centres not stated) ?
Response: 1.2

====

measurement.notes: P. aeruginosa biofilm formation inhibitors, primary screen, strain PAO1, LB-PBS medium, absorbance 600 nm (AID 1176); further: test concentration not given here
condition: P. aeruginosa PAO1 growth/biofilm, A600, 12 h; higher = more signal
I'd be grateful if you could share measured z-score for these entries.
Could you keep your reply to the number by itself?

Request: Could you tell me which z-score is on file for `CCO[C@H](c1cc(OC)cc([N+](=O)[O-])c1OC)[C@H](C)[C@@H](OC)[C@H](C)C=CCC(=O)OC` ?
Response: -0.303

Request: Could you tell me which z-score is on file for `CCN1C(=O)[C@H]2[C@H]3[C@H](O)[C@H](O)CC(=NO[C@@H]4O[C@H](COC(C)=O)[C@@H](OC(C)=O)[C@H](OC(C)=O)[C@H]4OC(C)=O)[C@@H]3CC[C@H]2C1=O` ?
Response: -0.136

Request: Could you tell me which z-score is on file for `O=C1C=C[C@@H](O)[C@@H]2[C@@H]3C(=O)N(C4CCCCC4)C(=O)[C@@H]3CC[C@@H]12` ?
Response: -0.601

Request: Could you tell me which z-score is on file for `O=C1C[C@@H](O)[C@@H](O)[C@@H]2[C@@H]3C(=O)N(c4ccc(F)cc4F)C(=O)[C@@H]3CC[C@H]12` ?
Response: 0.471

Request: Could you tell me which z-score is on file for `CCN1C(=O)[C@H]2[C@H]3[C@H](O)[C@H](O)CC(=NOCC[C@@H]4C=C[C@H](OC(C)=O)[C@@H](COC(C)=O)O4)[C@@H]3CC[C@H]2C1=O` ?
Response: 1.22

Request: Could you tell me which z-score is on file for `COc1ccc(COC(=O)NN=C2C[C@@H](O)[C@@H](O)[C@@H]3[C@@H]4C(=O)N([C@@H](C)c5ccccc5)C(=O)[C@@H]4CC[C@H]23)cc1` ?
Response: 0.683

====

I'd be grateful if you could share measured z-score for these entries.
measurement.notes: P. aeruginosa biofilm formation inhibitors, primary screen, PAO1 strain, BacTiter-Glo luminescence, LB-PBS (AID 1144)
condition: 12 h, higher = more signal
Calls of active or inactive are those of the source. The rule behind the calls is not given here.

Request: Could you tell me which z-score is on file for `CCN1C(=O)[C@H]2[C@H]3[C@H](O)[C@H](O)CC(=NOCC(C)C)[C@H]3CC[C@H]2C1=O` ?
Response: 0.138 (inactive)

Request: Could you tell me which z-score is on file for `CC(=O)OC[C@H]1O[C@H](CC=NOC[C@@H](O)[C@H]2O[C@@H]3OC(C)(C)O[C@@H]3[C@H]2O)C=C[C@@H]1OC(C)=O` ?
Response: -0.0289 (inactive)

Request: Could you tell me which z-score is on file for `CO[C@H]1COC(=O)[C@H](C)COC(=O)[C@@H](OCc2ccccc2)C=C[C@@H]1C` ?
Response: -0.462 (inactive)

Request: Could you tell me which z-score is on file for `CC(C)(C)N1C(=O)[C@H]2[C@H]3[C@H](O)[C@H](O)CC(=NNC(=O)OCc4ccccc4)[C@@H]3CC[C@H]2C1=O` ?
Response: -0.0893 (inactive)

====

measurement.notes: CREB reporter modulators without forskolin, primary screen, cell-based, PC12, CRE-LacZ reporter, unstimulated (AID 1145)
condition: no forskolin, luminescence, 4.5 h, higher = more signal, called active from +8 up or from −8 down
Classification field: enter label 1 for z-score values not below 2, label 0 for values below it.

Request: Can `COC(=O)[C@@H]1CC[C@H](C)[C@@H](c2ccc(Br)cc2)N1C(=O)C(F)(F)F` be said to have z-score at or above 2?
Response: label 0

Request: Can `COC(=O)C1=C(C)N(Cc2ccccc2)C2=C3C(=O)OCC[C@@H]3[C@@](O)(C(=O)OC)C(=O)N2[C@@H]1c1ccccc1` be said to have z-score at or above 2?
Response: label 1

Request: Can COc1ccc(OC[C@@H]2CC3[C@@H](c4ccc(Br)cc4)[C@H](C)CC[C@H]3C(=O)O2)cc1 (stereo partly drawn) be said to have z-score at or above 2?
Response: label 0

Request: Can `C[C@@H]1CC[C@@H](C(=O)O)N[C@H]1c1cccc(N2CCOCC2)c1` be said to have z-score at or above 2?
Response: label 0

Request: Can `CC(=O)OC[C@H]1O[C@H](CC=NOC[C@@H](O)COCc2ccco2)C=C[C@@H]1OC(C)=O` be said to have z-score at or above 2?
Response: label 0

Request: Can `CC(=O)OC[C@H]1O[C@H](CC=NOC[C@@H](O)[C@H]2O[C@@H]3OC(C)(C)O[C@@H]3[C@H]2O)C=C[C@@H]1OC(C)=O` be said to have z-score at or above 2?
Response: label 0

Request: Can `CC(C)CN1CCc2nc(-c3ccccc3)c3c(c2C1)CO[C@@H](C)C3` be said to have z-score at or above 2?
Response: label 1

Request: Can `CC(=O)OC[C@H]1O[C@@H](ON=C(C)CCN2CCCCc3nc(C)c(C)cc32)[C@H](OC(C)=O)[C@@H](OC(C)=O)[C@@H]1OC(C)=O` be said to have z-score at or above 2?
Response: label 1
